target: HNE (Homo sapiens); assay: HNE inhibition assay; assay type: biochemical; settings: highest tested concentration 50 µM
Sequence (P08246 30-247 limits assumed): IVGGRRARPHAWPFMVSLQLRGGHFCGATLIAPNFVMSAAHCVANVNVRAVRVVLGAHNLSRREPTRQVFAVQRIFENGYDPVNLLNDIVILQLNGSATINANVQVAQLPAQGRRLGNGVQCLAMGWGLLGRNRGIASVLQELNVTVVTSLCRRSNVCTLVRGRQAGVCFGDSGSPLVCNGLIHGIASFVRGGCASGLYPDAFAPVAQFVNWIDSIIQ
MEASURE: HNE inhibitory activity (in words)

Solved cases (6 shown):
IN: Quick one: give measured HNE inhibitory activity (in words) for CCOC(=O)c1cn(C(=O)c2cccc(C)c2)c2cc(Br)ccc12 [7b]
OUT: no activity

IN: Quick one: give measured HNE inhibitory activity (in words) for CCOC(=O)c1cn(C(=O)c2ccc(C)cc2)c2ccc(N)cc12 [compound 8]
OUT: no activity

IN: Quick one: give measured HNE inhibitory activity (in words) for CCOC(=O)c1cn(C(=O)c2ccc(C)cc2)c2ccc(NC(C)=O)cc12 [compound 9]
OUT: no activity

IN: Quick one: give measured HNE inhibitory activity (in words) for CCOC(=O)c1cn(C(=O)c2cccc(C)c2)c2ccccc12 [2c]
OUT: inactive

IN: Quick one: give measured HNE inhibitory activity (in words) for Cc1ccc(S(=O)(=O)n2cc(C(=O)Nc3ccccc3)c3ccccc32)cc1 [5f, N-phenyl-1-tosyl-1H-indole-3-carboxamide]
OUT: lack of activity

IN: Quick one: give measured HNE inhibitory activity (in words) for CCOC(=O)c1cn(C(=O)c2cccc(Cl)c2)c2ccccc12 [2f]
OUT: inactive

--- query ---
IN: Quick one: give measured HNE inhibitory activity (in words) for CCOC(=O)c1cn(-c2cccc(C)c2)c2ccccc12 [2a]
OUT: lack of activity
